Where these numbers come from: patent US11999715B2

Quick list: pIC50 per entry.
- target: UniProt:Q99683
- test.method.notes: ASK1 (AUTO PHOS T838) assay, MSD format, in HEK-293T cells transfected with ASK1-V5
- experimental.conditions: ASK1 T838 auto phosphorylation in HEK-293T cells, 1 hr compound incubation; class symbols
pIC50: −log10 of the molar value.

// solved cases for pIC50 follow
record_smiles=CC(C)n1cnnc1-c1cccc(NC(=O)c2cn(-c3cncc(Br)c3)nc2C(F)F)n1 target=UniProt:Q99683 quantity=pIC50 obs_value="≥ 6.00"
record_smiles=COc1nn(-c2cccnn2)cc1C(=O)Nc1cccc(-c2nncn2[C@@H](C)C(F)(F)F)n1 target=UniProt:Q99683 quantity=pIC50 obs_value="≥ 6.00"
record_smiles=COCCn1cc(C(=O)Nc2cccc(-c3nncn3[C@H](C)C(F)(F)F)n2)c(OC)n1 target=UniProt:Q99683 quantity=pIC50 obs_value="≥ 6.00"

The compound listed as COc1nn(C)cc1C(=O)Nc1cccc(-c2nncn2C2CCCC2)n1 has a reported pIC50 of ≥ 6.00

----------
Reported values of Kp uu at 4 h for individual entries
- test.method.notes: In vivo brain penetration, rat Kpuu study
- experimental.conditions: brain and plasma (unbound concentrations), IV infusion for four hours (1 mg/kg) to steady state, Kpuu=Cu,b/Cu,p
Lab note: jot down the number only; don't add units.

Consider the worked cases shown below.
compound=C[C@@H](n1cnnc1-c1cccc(NC(=O)c2cn(C)nc2C(F)F)n1)C(F)(F)F quantity="Kp uu at 4 h" obs_value=0.14
compound="C=CCn1cc(C(=O)Nc2cccc(-c3nncn3C(C)C(F)(F)F)n2)c(OC)n1 (stereo not drawn)" quantity="Kp uu at 4 h" obs_value=0.33

Now look at this one.
In plain terms, COc1nn(-c2ncccc2C)cc1C(=O)Nc1cccc(-c2nncn2C(C)C)n1 has a documented Kp uu at 4 h of 0.16

----------
Some compounds, each annotated with its measured pIC50.
- target: ASK1 T838 auto phosphorylation (Homo sapiens)
- Sequence (Q99683 1-1374): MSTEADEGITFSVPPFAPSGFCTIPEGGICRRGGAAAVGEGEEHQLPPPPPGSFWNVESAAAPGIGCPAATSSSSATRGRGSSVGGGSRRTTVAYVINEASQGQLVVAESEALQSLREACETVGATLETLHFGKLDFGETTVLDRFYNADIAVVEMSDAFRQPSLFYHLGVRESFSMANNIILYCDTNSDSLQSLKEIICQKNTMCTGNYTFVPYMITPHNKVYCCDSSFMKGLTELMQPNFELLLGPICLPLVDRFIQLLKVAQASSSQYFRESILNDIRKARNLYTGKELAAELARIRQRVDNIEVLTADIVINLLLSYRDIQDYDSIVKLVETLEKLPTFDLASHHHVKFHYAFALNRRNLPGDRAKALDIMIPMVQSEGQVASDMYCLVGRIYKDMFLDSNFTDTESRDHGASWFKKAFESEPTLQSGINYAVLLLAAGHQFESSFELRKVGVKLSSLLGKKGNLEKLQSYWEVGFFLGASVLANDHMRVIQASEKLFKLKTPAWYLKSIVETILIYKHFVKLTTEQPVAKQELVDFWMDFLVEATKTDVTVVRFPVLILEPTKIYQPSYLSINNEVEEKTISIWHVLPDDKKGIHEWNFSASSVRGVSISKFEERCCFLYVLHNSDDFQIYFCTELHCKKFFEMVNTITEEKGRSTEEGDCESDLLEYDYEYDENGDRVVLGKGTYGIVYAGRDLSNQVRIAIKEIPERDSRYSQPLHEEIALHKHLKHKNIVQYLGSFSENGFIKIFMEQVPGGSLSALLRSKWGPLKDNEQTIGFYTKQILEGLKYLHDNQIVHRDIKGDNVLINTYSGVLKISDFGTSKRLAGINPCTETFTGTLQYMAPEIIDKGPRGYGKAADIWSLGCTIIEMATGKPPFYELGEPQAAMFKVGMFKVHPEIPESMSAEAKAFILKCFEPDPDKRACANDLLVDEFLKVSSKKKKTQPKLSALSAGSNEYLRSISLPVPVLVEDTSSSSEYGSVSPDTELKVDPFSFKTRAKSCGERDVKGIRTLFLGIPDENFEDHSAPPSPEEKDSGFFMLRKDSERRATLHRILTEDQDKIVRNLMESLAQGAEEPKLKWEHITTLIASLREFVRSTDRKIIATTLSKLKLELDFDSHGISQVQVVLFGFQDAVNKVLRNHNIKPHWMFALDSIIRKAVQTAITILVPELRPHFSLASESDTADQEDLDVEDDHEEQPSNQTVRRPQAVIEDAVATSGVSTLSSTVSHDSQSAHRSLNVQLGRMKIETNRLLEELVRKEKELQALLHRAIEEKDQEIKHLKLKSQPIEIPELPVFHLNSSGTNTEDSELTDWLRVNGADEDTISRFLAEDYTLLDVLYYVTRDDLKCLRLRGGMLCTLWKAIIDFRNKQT
- test.method.notes: ASK1 (AUTO PHOS T838) assay, MSD format, in HEK-293T cells transfected with ASK1-V5
- experimental.conditions: ASK1 T838 auto phosphorylation in HEK-293T cells, 1 hr compound incubation; class symbols
pIC50: −log10 of the molar value.

Field: example entries. Status: answers known.
compound=COCc1nn(C)cc1C(=O)Nc1cccc(-c2nncn2[C@@H](C)C(F)(F)F)n1 quantity=pIC50 obs_value="≥ 6.00"
compound=CC(C)n1cncc1-c1cccc(NC(=O)c2cn(-c3cccnc3)nc2C(F)F)n1 quantity=pIC50 obs_value="≥ 6.00"
compound=CCOc1nn(C)cc1C(=O)Nc1cccc(-c2nncn2C(C)C)n1 quantity=pIC50 obs_value="≥ 6.00"

Next:
Given item COc1nn(C)cc1C(=O)Nc1cccc(-c2nncn2[C@H]2CCN(C(=O)OC(C)(C)C)C2)n1 (single isomer, unassigned) , the value recorded as its pIC50 is 5.00 to 6.00
